All values here come from patent US20220144812A1.

# Test system: H3K18Ac in HB-CLS-2 cells
# protocol description: H3K18AC in-cell western (ICW) assay
# Assay type: cell-based
# particulars: H3K18Ac in-cell western; read-out: CREBBP ICW IC50
pIC50: −log10 of the molar value.
Mark not met for pIC50 values under 6, and met for everything at or above.

Example entries begin here.
Q: Reported pIC50 reaches at least 6 for CCn1ncc(CN(C)C(=O)c2nc(-c3cc(C)cc(NCCN(C)C(=O)OC(C)(C)C)c3)nc3ccc(Cl)cc23)c1C ?
Result: not met

Q: Please indicate if the recorded pIC50 for CCc1ncc(CN(C)C(=O)c2cc(-c3cc(-c4ncc[nH]4)n(C)n3)nc3ccc(Cl)cc23)n1C meets or exceeds 6.
Result: met

Q: Determine whether measured pIC50 meets or exceeds 6 for CCn1ncc(CN(C)C(=O)c2nc(-c3cc(N)cc(Cl)c3)nc3ccc(Cl)cc23)c1C
Result: met

Continuing:
Q: Reported pIC50 at or above 6? CCc1ncc(CN(C)C(=O)c2cc(-c3cc(-c4ncc[nH]4)n(C)n3)nc3ccc(COC)cc23)n1C
Result: met

Q: Reported pIC50 at or above 6? CCn1ncc(CN(C)C(=O)c2nc(-c3cn[nH]c3C)nc3ccc(Cl)cc23)c1C
Result: not met

Q: API: above_or_equal(metric=pIC50, cutoff=6) for item CCn1ncc(CN(C)C(=O)c2nc(-c3cc(Cl)cc(OCCCNC(=O)OC(C)(C)C)c3)nc3ccc(Cl)cc23)c1C
Result: not met

Q: Textbook exercise: given the entry CCc1ncc(CN(C)C(=O)c2nc(-c3cc(Cl)c4[nH]cnc4c3)nc3ccc(COC)cc23)n1C , state whether its pIC50 is greater than or equal to 6.
Result: met

Q: # check: pIC50 of CCn1ncc(CN(C)C(=O)c2nc(-c3cc(C(=O)NCCN4CCCC4)on3)nc3ccc(Cl)cc23)c1C is greater than or equal to 6
Result: not met

Q: Form field: pIC50 at least 6? Entry: CCN(Cc1cnn(CC)c1C)C(=O)c1cc(-c2cccc(Cl)c2)nc2ccc(Cl)cc12
Result: not met

Q: Does CCn1ncc(CN(C)C(=O)c2nc(-c3nc4c[nH]nc4cc3C)nc3ccc(Cl)cc23)c1C have a reported pIC50 of at least 6?
Result: not met

Q: For this molecule, is measured pIC50 6 or higher? CCn1ncc(CN(C)C(=O)c2nc(-c3ccc4n[nH]c(NC)c4c3)nc3ccc(Cl)cc23)c1C
Result: met

Q: Textbook exercise: given the entry CCn1ncc(CN(C)C(=O)c2cc(-c3cc(N[C@@H]4CCNC4)cc(C)n3)nc3ccc(Cl)cc23)c1C , state whether its pIC50 is greater than or equal to 6.
Result: met

* * *

# tgt: EP300 (P300(1048-1664)) (Homo sapiens, UniProt Q09472)
# Construct: P300(1048-1664)
# Sequence (Q09472 1048-1664): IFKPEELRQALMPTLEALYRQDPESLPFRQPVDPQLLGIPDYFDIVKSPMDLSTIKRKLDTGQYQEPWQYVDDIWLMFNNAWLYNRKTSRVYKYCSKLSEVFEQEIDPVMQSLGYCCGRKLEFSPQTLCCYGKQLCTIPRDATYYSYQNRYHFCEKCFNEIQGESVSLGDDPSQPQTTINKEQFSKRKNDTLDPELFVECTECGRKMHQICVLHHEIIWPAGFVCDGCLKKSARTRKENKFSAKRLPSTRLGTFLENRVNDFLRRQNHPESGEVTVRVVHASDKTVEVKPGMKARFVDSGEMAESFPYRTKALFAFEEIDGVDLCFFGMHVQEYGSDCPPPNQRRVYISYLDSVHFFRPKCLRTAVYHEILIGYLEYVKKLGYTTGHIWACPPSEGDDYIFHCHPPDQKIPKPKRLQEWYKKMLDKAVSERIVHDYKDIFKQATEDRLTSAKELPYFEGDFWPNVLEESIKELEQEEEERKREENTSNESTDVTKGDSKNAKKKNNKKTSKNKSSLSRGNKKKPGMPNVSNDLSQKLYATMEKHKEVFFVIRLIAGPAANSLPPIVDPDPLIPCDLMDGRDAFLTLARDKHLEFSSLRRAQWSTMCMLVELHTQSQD
# protocol description: Biochemical assay for EP300, SAMDI
# particulars: EP300, SAMDI; read-out: EP300 Biochemistry IC50
Mark met only for IC50 values smaller than 30 nM; exact matches and larger values are not met.

Q: I'd appreciate it if you could check whether CCn1ncc(CN(C)C(=O)c2cc(-c3ccc(NCCNC)c(OC)c3)nc3ccc(Cl)cc23)c1C has IC50 smaller than 30 nM.
Result: not met

Continuing:
Q: Is the reported IC50 for CCn1ncc(CN(C)C(=O)c2nc(-c3ccc(OCCO)c(OC)c3)nc3ccc(Cl)cc23)c1C strictly below 30 nM?
Result: not met

Q: Given the entry CCn1ncc(CN(C)C(=O)c2cc(-c3ccc(OCCNC)c(Cl)c3)nc3ccc(P(C)(C)=O)cc23)c1C , would its reported IC50 be below 30 nM?
Result: not met

Q: Below 30 nM on IC50? Entry CCn1ncc(CN(C)C(=O)c2cc(-c3ccc(NCC(CN(C)C)OC)c(C)n3)nc3ccc(Cl)cc23)c1C (stereo not drawn)
Result: met

Q: Please determine if CCn1ncc(CN(C)C(=O)c2nc(-c3nc4c[nH]nc4cc3C)nc3ccc(Cl)cc23)c1C is below 30 nM in terms of IC50.
Result: not met

Q: Just wondering, is IC50 of CCn1ncc(CN(C)C(=O)c2cc(-c3ccc(NCCNC)c(C)n3)nc3ccc(COC)cc23)c1C below 30 nM?
Result: met

Q: Strictly below 30 nM in IC50? Cc1n[nH]c(C)c1CN(C)C(=O)c1nc(-c2cccc(Cl)c2)nc2ccc(Cl)cc12
Result: not met

Q: Lab log: compare recorded IC50 with 30 nM; is it strictly lower for CCn1ncc(CN(C)C(=O)c2nc(-c3cc4nc[nH]c4cc3OC)nc3ccc(Cl)cc23)c1C ?
Result: not met

Q: Report whether reported IC50 is lower than 30 nM (strictly) for CCn1ncc(CN(C)C(=O)c2cc(-c3cc4[nH]ncc4c(C)n3)nc3ccc(Cl)cc23)c1C
Result: met

* * *

Quick list: pIC50 per entry.
# tgt: EP300 (P300(1048-1664)) (Homo sapiens, UniProt Q09472)
# Construct: P300(1048-1664)
# Sequence (Q09472 1048-1664): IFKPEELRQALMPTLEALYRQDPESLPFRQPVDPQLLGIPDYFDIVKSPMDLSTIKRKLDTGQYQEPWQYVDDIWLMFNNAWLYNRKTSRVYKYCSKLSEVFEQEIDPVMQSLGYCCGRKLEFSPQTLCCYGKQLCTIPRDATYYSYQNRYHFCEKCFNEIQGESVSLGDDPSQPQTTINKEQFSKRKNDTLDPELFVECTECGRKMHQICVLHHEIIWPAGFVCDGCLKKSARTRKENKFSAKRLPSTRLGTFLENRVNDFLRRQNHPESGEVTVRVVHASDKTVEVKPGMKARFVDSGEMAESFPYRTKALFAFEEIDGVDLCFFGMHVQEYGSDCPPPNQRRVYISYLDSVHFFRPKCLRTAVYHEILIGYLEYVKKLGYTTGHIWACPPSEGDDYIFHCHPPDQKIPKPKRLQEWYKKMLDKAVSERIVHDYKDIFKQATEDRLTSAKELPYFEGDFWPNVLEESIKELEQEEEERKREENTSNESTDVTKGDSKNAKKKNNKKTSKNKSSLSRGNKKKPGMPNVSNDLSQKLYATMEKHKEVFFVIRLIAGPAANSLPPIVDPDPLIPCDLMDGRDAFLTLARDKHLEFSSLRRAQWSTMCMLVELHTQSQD
# protocol description: Biochemical assay for EP300, SAMDI
# particulars: EP300, SAMDI; read-out: EP300 Biochemistry IC50
// scale note: pIC50 = -log10(conc_M); give the bare number

Q: Reported pIC50 for EP300 (P300(1048-1664)) (Homo sapiens, UniProt Q09472), given CCn1ncc(CN(C)C(=O)c2nc(-c3ccc4n[nH]c(N)c4c3)nc3ccc(Cl)cc23)c1C ?
Result: 7.81

Q: Find the measured pIC50: item CCn1ncc(CN(C)C(=O)c2nc(-c3ccc(NCCNC)cn3)nc3ccc(Cl)cc23)c1C , target or system EP300 (P300(1048-1664)) (Homo sapiens, UniProt Q09472).
Result: 6.14

Q: // fetch EP300 (P300(1048-1664)) (Homo sapiens, UniProt Q09472) pIC50 for CCn1ncc(CN(C)C(=O)c2nc(-c3ccc(OCC(O)CN4CCCC4)c(Cl)c3)nc3ccc(Cl)cc23)c1C (stereo not shown)
Result: 7.70

---
Q: Quick check: pIC50 on EP300 (P300(1048-1664)) (Homo sapiens, UniProt Q09472), item CCc1noc(CN(C)C(=O)c2cc(-c3ccc(NCCNC)c(C)n3)nc3ccc(Cl)cc23)n1 ?
Result: 5.41
